# test-method-notes: Cytotoxicity against human U937 cells assessed as cell viability at 1.25 ug/ml after 72 hrs by MTT assay
# Assay type: cell-based, U-937
# condition-details: read-out: Activity
measurement-label: viability at 72 h, 1.25 ug/ml (%)

| compound | units-symbol | quantitative-readout |
| --- | --- | --- |
| CCC(=O)O/N=C1\c2ccccc2-c2c1c(-n1ccnc1)nc1ccc(Br)cc21 | % | 84 |
| CC(C)(C)OC(=O)NC(Cc1cccc(F)c1)C(=O)O/N=C1\c2ccccc2-c2c1c(N1CCN(c3ccccn3)CC1)nc1ccc(Br)cc21 (stereo not drawn) | % | 92 |
| CC(C)(C)OC(=O)NCC(=O)O/N=C1\c2ccccc2-c2c1c(N1CCN(c3ccccn3)CC1)nc1ccc(Br)cc21 | % | 87 |
| CC(C)(C)OC(=O)N[C@H](C(=O)O/N=C1\c2ccccc2-c2c1c(N1CCN(c3ccccn3)CC1)nc1ccc(Br)cc21)C(C)(C)C | % | 92 |
| CN(C)C(=O)O/N=C1\c2ccccc2-c2c1c(N1CCN(c3ccccn3)CC1)nc1ccc(Br)cc21 | % | 100 |
| CCCCC(=O)O/N=C1\c2ccccc2-c2c1c(-n1ccnc1)nc1ccc(Br)cc21 | % | 85 |
| O=C(CCCCBr)O/N=C1\c2ccccc2-c2c1c(N1CCN(c3ccccn3)CC1)nc1ccc(Br)cc21 | % | 99 |
| CC(C)(C)OC(=O)N1CCC[C@H]1C(=O)O/N=C1\c2ccccc2-c2c1c(-n1ccnc1)nc1ccc(Br)cc21 | % | 87 |

====

Reported logD by item:
# test-method-notes: Octanol-water partition coefficient, log P of the compound at pH 7.4 at room temperature by UV spectrophotometric analysis
# Format: physicochemical
measurement-label: logD

| molecule | quantitative-readout |
| --- | --- |
| CCCCC(=O)O/N=C1\c2ccccc2-c2c1c(-n1ccnc1)nc1ccc(Br)cc21 | 1.6 |
| O=C(CNC(=O)OCC1c2ccccc2-c2ccccc21)O/N=C1\c2ccccc2-c2c1c(N1CCN(c3ccccn3)CC1)nc1ccc(Br)cc21 | 1.4 |
| CN(C)C(=O)O/N=C1\c2ccccc2-c2c1c(-n1ccnc1)nc1ccc(Br)cc21 | 1.1 |
| CC(C)(C)OC(=O)N1CCC[C@H]1C(=O)O/N=C1\c2ccccc2-c2c1c(-n1ccnc1)nc1ccc(Br)cc21 | 1.3 |
| CCCCCC(=O)OC1(C)c2ccccc2-c2c1c(-n1ccnc1)nc1ccc(Br)cc21 (stereo not drawn) | 1.4 |
| O/N=C1\c2ccccc2-c2c1c(-n1ccnc1)nc1ccc(Br)cc21 | 0.2 |
| CC(C)(C)OC(=O)N1CCC[C@H]1C(=O)O/N=C1\c2ccccc2-c2c1c(N1CCN(c3ccccn3)CC1)nc1ccc(Br)cc21 | 2.3 |
| CCC(=O)O/N=C1\c2ccccc2-c2c1c(-n1ccnc1)nc1ccc(Br)cc21 | 1.2 |

====

# test-method-notes: Stability of the compound in 10% aqueous ammonia buffer at pH 8 assessed as hydrolysis to 2-bromo-6-(1H-imidazol-1-yl)-7H-indeno[2,1-c]quinolin-7-one oxime at 1 mg at 37 degC by LC-MS analysis
# Type: physicochemical
# Set-up: scale not given: the % may be the effect or the level left

| molecule | Activity / % |
| --- | --- |
| CCCCCCCCC(=O)O/N=C1\c2ccccc2-c2c1c(-n1ccnc1)nc1ccc(Br)cc21 | 95 |
| CCCC(=O)O/N=C1\c2ccccc2-c2c1c(-n1ccnc1)nc1ccc(Br)cc21 | 95 |
| CC(C)[C@H](NC(=O)OCC1c2ccccc2-c2ccccc21)C(=O)O/N=C1\c2ccccc2-c2c1c(N1CCN(c3ccccn3)CC1)nc1ccc(Br)cc21 | 96 |
| O=C(CNC(=O)OCC1c2ccccc2-c2ccccc21)O/N=C1\c2ccccc2-c2c1c(N1CCN(c3ccccn3)CC1)nc1ccc(Br)cc21 | 90 |
| CCCCCC(=O)OC1(C)c2ccccc2-c2c1c(-n1ccnc1)nc1ccc(Br)cc21 (stereo not drawn) | 90 |
| CC(C)(C)OC(=O)N[C@H](C(=O)O/N=C1\c2ccccc2-c2c1c(N1CCN(c3ccccn3)CC1)nc1ccc(Br)cc21)C(C)(C)C | 95 |
| CCCCCCCCCC(=O)O/N=C1\c2ccccc2-c2c1c(-n1ccnc1)nc1ccc(Br)cc21 | 90 |
